Please provide measured Eryth/E.c: concentration required to restore erythromycin activity (combination MIC) for the entries that follow.
system: E. coli (ATCC 25922); assay: Enhancement of erythromycin activity; type: cell-based, Escherichia coli; details: erythromycin fixed at 10.9 µM (8 µg/mL); E. coli (ATCC 25922)
Give the value in µM but do not write µM after it.

Query: I am curious: what Eryth/E.c: concentration required to restore erythromycin activity (combination MIC) value has been reported for O=C(CCC(=O)Nc1cccc2ccccc12)NCCCNCCCCNCCCNC(=O)CCC(=O)Nc1cccc2ccccc12.O=C(O)C(F)(F)F.O=C(O)C(F)(F)F [Compound 18a] ?
Result: 568

Query: Would you kindly repeat that for O=C(CCC(=O)Nc1ccc(-c2ccccc2)cc1)NCCCNCCCCCCCCNCCCNC(=O)CCC(=O)Nc1ccc(-c2ccccc2)cc1.O=C(O)C(F)(F)F.O=C(O)C(F)(F)F [Compound 21d] ?
Result: 300

Query: Would you kindly repeat that for O=C(NCCCNCCCCCCCCNCCCNC(=O)c1cccc2ccccc12)c1cccc2ccccc12.O=C(O)C(F)(F)F.O=C(O)C(F)(F)F [Compound 17d] ?
Result: 31.5

Query: Would you kindly repeat that for O=C(NCCCNCCCCCCCNCCCNC(=O)c1cccc2ccccc12)c1cccc2ccccc12.O=C(O)C(F)(F)F.O=C(O)C(F)(F)F [Compound 17c] ?
Result: 64

Query: Would you kindly repeat that for O=C(NCCCNCCCCCCNCCCNC(=O)c1ccc2ccccc2c1)c1ccc2ccccc2c1.O=C(O)C(F)(F)F.O=C(O)C(F)(F)F [Compound 19b] ?
Result: 65.2

Query: Would you kindly repeat that for O=C(CCC(=O)Nc1cccc2ccccc12)NCCCNCCCCCCCNCCCNC(=O)CCC(=O)Nc1cccc2ccccc12.O=C(O)C(F)(F)F.O=C(O)C(F)(F)F [Compound 18c] ?
Result: 200

====

Please provide measured MIC for the entries that follow.
tested on: A. baumannii (ATCC 19606); experiment: Antimicrobial MIC, A. baumannii; assay type: cell-based, Acinetobacter baumannii; conditions: Acinetobacter baumannii, ATCC19606, A. baumannii (ATCC 19606); mean (n = 2)

Query: I am curious: what MIC value has been reported for O=C(CCC(=O)Nc1cccc2ccccc12)NCCCNCCCCNCCCNC(=O)CCC(=O)Nc1cccc2ccccc12.O=C(O)C(F)(F)F.O=C(O)C(F)(F)F [Compound 18a] ?
Result: > 36.3 µM

Query: Would you kindly repeat that for O=C(NCCCNCCCCCCCCCCCCNCCCNC(=O)c1cccc2ccccc12)c1cccc2ccccc12.O=C(O)C(F)(F)F.O=C(O)C(F)(F)F [Compound 17f] ?
Result: 0.29 µM

Query: Would you kindly repeat that for O=C(CCC(=O)Nc1ccc2ccccc2c1)NCCCNCCCCCCCCCCCCNCCCNC(=O)CCC(=O)Nc1ccc2ccccc2c1.O=C(O)C(F)(F)F.O=C(O)C(F)(F)F [Compound 20f] ?
Result: > 32 µM

Query: Would you kindly repeat that for O=C(NCCCNCCCCNCCCNC(=O)c1cccc2ccccc12)c1cccc2ccccc12.O=C(O)C(F)(F)F.O=C(O)C(F)(F)F [Compound 17a] ?
Result: > 43.3 µM

Query: Would you kindly repeat that for O=C(CCC(=O)Nc1ccc(-c2ccccc2)cc1)NCCCNCCCCNCCCNC(=O)CCC(=O)Nc1ccc(-c2ccccc2)cc1.O=C(O)C(F)(F)F.O=C(O)C(F)(F)F [Compound 21a] ?
Result: > 34.3 µM

Query: Would you kindly repeat that for O=C(CCC(=O)Nc1cccc2ccccc12)NCCCNCCCCCCCNCCCNC(=O)CCC(=O)Nc1cccc2ccccc12.O=C(O)C(F)(F)F.O=C(O)C(F)(F)F [Compound 18c] ?
Result: > 34.7 µM

Query: Would you kindly repeat that for O=C(CCC(=O)Nc1cccc2ccccc12)NCCCNCCCCCCCCCCNCCCNC(=O)CCC(=O)Nc1cccc2ccccc12.O=C(O)C(F)(F)F.O=C(O)C(F)(F)F [Compound 18e] ?
Result: > 33.2 µM

Query: Would you kindly repeat that for O=C(NCCCNCCCCCCNCCCNC(=O)c1cccc2ccccc12)c1cccc2ccccc12.O=C(O)C(F)(F)F.O=C(O)C(F)(F)F [Compound 17b] ?
Result: > 41.7 µM

Query: Would you kindly repeat that for O=C(NCCCNCCCCCCCNCCCNC(=O)c1ccc2ccccc2c1)c1ccc2ccccc2c1.O=C(O)C(F)(F)F.O=C(O)C(F)(F)F [Compound 19c] ?
Result: > 41 µM

Query: Would you kindly repeat that for O=C(NCCCNCCCCCCCCCCCCNCCCNC(=O)c1ccc2ccccc2c1)c1ccc2ccccc2c1.O=C(O)C(F)(F)F.O=C(O)C(F)(F)F [Compound 19f] ?
Result: 0.29 µM

Query: Would you kindly repeat that for O=C(CCC(=O)Nc1ccc2ccccc2c1)NCCCNCCCCCCNCCCNC(=O)CCC(=O)Nc1ccc2ccccc2c1.O=C(O)C(F)(F)F.O=C(O)C(F)(F)F [Compound 20b] ?
Result: > 35.2 µM

Query: Would you kindly repeat that for O=C(CCC(=O)Nc1ccc2ccccc2c1)NCCCNCCCCCCCCNCCCNC(=O)CCC(=O)Nc1ccc2ccccc2c1.O=C(O)C(F)(F)F.O=C(O)C(F)(F)F [Compound 20d] ?
Result: > 34.2 µM

====

system: human red blood cells; experiment: Hemolytic assay; format: cell-based; conditions: concentration at 10% hemolytic activity on human red blood cells; mean (n = 2)
endpoint.name: Hemolysis HC10

Query: Please state recorded Hemolysis HC10 (tested on human red blood cells) of O=C(CCC(=O)Nc1cccc2ccccc12)NCCCNCCCCCCCCNCCCNC(=O)CCC(=O)Nc1cccc2ccccc12.O=C(O)C(F)(F)F.O=C(O)C(F)(F)F [Compound 18d]
Result: >34.2 µM

Query: Would you kindly repeat that for O=C(NCCCNCCCCCCCNCCCNC(=O)c1ccc2ccccc2c1)c1ccc2ccccc2c1.O=C(O)C(F)(F)F.O=C(O)C(F)(F)F [Compound 19c] ?
Result: >41.0 µM

Query: Would you kindly repeat that for O=C(CCC(=O)Nc1ccc(-c2ccccc2)cc1)NCCCNCCCCCCCCNCCCNC(=O)CCC(=O)Nc1ccc(-c2ccccc2)cc1.O=C(O)C(F)(F)F.O=C(O)C(F)(F)F [Compound 21d] ?
Result: >32.4 µM

====

Please provide measured MIC for the entries that follow.
tested on: A. baumannii (ATCC 19606); assay: Antimicrobial MIC, A. baumannii; assay type: cell-based, Acinetobacter baumannii; conditions: Acinetobacter baumannii, ATCC19606, A. baumannii (ATCC 19606); mean (n = 2)

Query: I am curious: what MIC value has been reported for O=C(CCC(=O)Nc1ccc2ccccc2c1)NCCCNCCCCCCCNCCCNC(=O)CCC(=O)Nc1ccc2ccccc2c1.O=C(O)C(F)(F)F.O=C(O)C(F)(F)F [Compound 20c] ?
Result: > 34.7 µM

Query: Would you kindly repeat that for O=C(CCC(=O)Nc1ccc(-c2ccccc2)cc1)NCCCNCCCCCCCCNCCCNC(=O)CCC(=O)Nc1ccc(-c2ccccc2)cc1.O=C(O)C(F)(F)F.O=C(O)C(F)(F)F [Compound 21d] ?
Result: > 32.4 µM

Query: Would you kindly repeat that for O=C(NCCCNCCCCCCCCCCNCCCNC(=O)c1ccc2ccccc2c1)c1ccc2ccccc2c1.O=C(O)C(F)(F)F.O=C(O)C(F)(F)F [Compound 19e] ?
Result: 38.9 µM

Query: Would you kindly repeat that for O=C(CCC(=O)Nc1cccc2ccccc12)NCCCNCCCCCCNCCCNC(=O)CCC(=O)Nc1cccc2ccccc12.O=C(O)C(F)(F)F.O=C(O)C(F)(F)F [Compound 18b] ?
Result: > 35.2 µM

Query: Would you kindly repeat that for O=C(CCC(=O)Nc1ccc(-c2ccccc2)cc1)NCCCNCCCCCCCNCCCNC(=O)CCC(=O)Nc1ccc(-c2ccccc2)cc1.O=C(O)C(F)(F)F.O=C(O)C(F)(F)F [Compound 21c] ?
Result: > 32.8 µM

====

Please provide measured Hemolysis HC10 for the entries that follow.
system: human red blood cells; assay: Hemolytic assay; assay type: cell-based; conditions: concentration at 10% hemolytic activity on human red blood cells; mean (n = 2)

Query: I am curious: what Hemolysis HC10 value has been reported for O=C(CCC(=O)Nc1ccc(-c2ccccc2)cc1)NCCCNCCCCCCCNCCCNC(=O)CCC(=O)Nc1ccc(-c2ccccc2)cc1.O=C(O)C(F)(F)F.O=C(O)C(F)(F)F [Compound 21c] ?
Result: >32.8 µM

Query: Would you kindly repeat that for O=C(CCC(=O)Nc1cccc2ccccc12)NCCCNCCCCCCCCCCCCNCCCNC(=O)CCC(=O)Nc1cccc2ccccc12.O=C(O)C(F)(F)F.O=C(O)C(F)(F)F [Compound 18f] ?
Result: >32.2 µM

Query: Would you kindly repeat that for O=C(NCCCNCCCCNCCCNC(=O)c1ccc2ccccc2c1)c1ccc2ccccc2c1.O=C(O)C(F)(F)F.O=C(O)C(F)(F)F [Compound 19a] ?
Result: >43.3 µM

Query: Would you kindly repeat that for O=C(NCCCNCCCCCCCCNCCCNC(=O)c1ccc2ccccc2c1)c1ccc2ccccc2c1.O=C(O)C(F)(F)F.O=C(O)C(F)(F)F [Compound 19d] ?
Result: >40.3 µM

Query: Would you kindly repeat that for O=C(CCC(=O)Nc1ccc2ccccc2c1)NCCCNCCCCCCNCCCNC(=O)CCC(=O)Nc1ccc2ccccc2c1.O=C(O)C(F)(F)F.O=C(O)C(F)(F)F [Compound 20b] ?
Result: >35.2 µM

Query: Would you kindly repeat that for O=C(CCC(=O)Nc1cccc2ccccc12)NCCCNCCCCCCCCCCNCCCNC(=O)CCC(=O)Nc1cccc2ccccc12.O=C(O)C(F)(F)F.O=C(O)C(F)(F)F [Compound 18e] ?
Result: >33.2 µM
